test system: RARa:RXR (NR concentration 270 nM, RXRa partner concentration 90 nM); experiment: PBM binding z-score (relative to random genomic background probes); higher = stronger binding; sequences stand for … in GC…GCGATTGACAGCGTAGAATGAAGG
Label True when PBM binding z-score is at or above 0.5; otherwise label False.

seq_text=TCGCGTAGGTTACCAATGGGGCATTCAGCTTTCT qualitative_label=False
seq_text=TCATATAGGTAAAGAGGTGAAAGTCCGTAAGTTA qualitative_label=True
seq_text=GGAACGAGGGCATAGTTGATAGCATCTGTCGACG qualitative_label=False
seq_text=GCATATAGGTAATACATGGTGAAAGTCCGATTGT qualitative_label=False
seq_text=ATATGTAGGTTACATCCGCGTCATTCAGGCTATG qualitative_label=False
seq_text=CCTATTAGTTGACCATAAGCGCAACCGAAGCTCG qualitative_label=True
seq_text=CGAACTAGGTCAGAACAGGACAGGGAAGGATGAT qualitative_label=True
seq_text=AGAACGAGGTTATACGTAGATCAGGGAAGAAAGT qualitative_label=True
seq_text=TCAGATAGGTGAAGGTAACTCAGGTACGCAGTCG qualitative_label=True
seq_text=TAGCCTAAGTCATTGGGCCAGTATAGTACGCATC qualitative_label=False
seq_text=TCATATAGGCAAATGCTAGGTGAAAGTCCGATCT qualitative_label=True
seq_text=CCTACTGGGCCAAGATCATTGATCAGTCAAAGCA qualitative_label=False
seq_text=CCTAGGAGGCCAGGGTCACTCAAGCATTTCGCTT qualitative_label=True
seq_text=TTACCACGGTGAAGGTCGTTGATCCCTCTGTAGA qualitative_label=True
seq_text=ATCGAAAGGTCGAAGGTGAGTATTCCCACCCGAA qualitative_label=True
seq_text=CGAACTAGGGCAGAACAGGACAGTGAAGGATGAT qualitative_label=True
seq_text=ATCTCTAGGTAACCAAGTTCTGTGAATGCCGAAC qualitative_label=False
seq_text=CGTCCAAGGTCATAGGTGGTCAGTGAAGACAGAT qualitative_label=True
seq_text=CCTGATAGGTCATGGTCAGCTAATCTACAGTATG qualitative_label=True
seq_text=CAAACTAGTTCACAGAGGTCAAAGTCCGTGCGTA qualitative_label=True
seq_text=CCTGCTAGGTCAATGGTCAGCTAGAGCAGCTCGC qualitative_label=True
seq_text=TCTTGTAGATCAACAGGAGGGTAAGAAAGATCGA qualitative_label=False
seq_text=CCGACTGTGGCAGAAAGGTTACCATACCATCCGG qualitative_label=True
seq_text=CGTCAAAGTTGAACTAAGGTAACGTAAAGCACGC qualitative_label=True
seq_text=TCTGCTAGGTCAGTTGGTCAGCTCACGAGCTGCC qualitative_label=True
seq_text=TATCCTAGGTCATTCAGGGGCCAGTATAGAAAGC qualitative_label=True

----------
test system: RARa:RXR (NR concentration 270 nM, RXRa partner concentration 90 nM); assay: PBM binding z-score (relative to random genomic background probes); higher = stronger binding; sequences stand for … in GC…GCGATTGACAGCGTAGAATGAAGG
Readout name: PBM binding z-score

seq_text=TCATATAGGTAAAGGTGAAATTCGAACGATATGA val=1.54
seq_text=CTCGAACGGTCGTGCTCAGGTGAGTATACCAAAC val=-0.252
seq_text=TCTCGGAGAACACGAAAGGTCAGAGCTCGACATC val=3.89
seq_text=TTACCAAGGTGAGCTGAGGTCGATGATCCAACTC val=1.23
seq_text=TCTTGTAGATCAACAGGACGTTAAGAAAGATCGA val=0.574
seq_text=AGAACGAGGGCAATGAGTTGATAGCTCGGGTGGC val=0.0914
seq_text=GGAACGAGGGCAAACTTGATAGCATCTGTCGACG val=0.525
seq_text=CCGAGTAGGTTATGGGGCATTTAGGCAACGGTGA val=0.292
seq_text=CGAGACAGGTGAAAGGTAACTCAGTCTGGTACGC val=1.92
seq_text=ACTAGCAGGCCAAGTTTGGGTCACTAAAACAAAG val=1.49
seq_text=CGTCCAAGCTCAATGCTAGGTCAGTGAAAGCATT val=0.319
seq_text=ATATGTAGGTTATCGGGTCATTCACTTTGCGCAT val=4.15
seq_text=TAGCCTAGGTCATTCAGAGGCCAGTATAGAAAGC val=3.25
seq_text=TACCCTAGGTCATGCGGGCCAGTATAGTGTCGGC val=2.37
seq_text=ATATGTAGGTTATCGGGGCATTCAGTTTGCGCAT val=1.04
seq_text=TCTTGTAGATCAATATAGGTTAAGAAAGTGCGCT val=1.4
seq_text=CGTCCAAGGTCATAGGAGGCCAGTGAAGACAGAT val=4.52
seq_text=TCGAGTAGGTGAGGGGCATTCAGAATGGCGTCGA val=-0.0572
seq_text=CGTCCAAGGTGAATGCTAGGTCAGTGAAAGCATT val=1.8
seq_text=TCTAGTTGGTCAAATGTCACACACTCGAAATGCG val=1.67
seq_text=TCTGCTAGGTCAACGATGGTCAGCTATTCTGCTA val=2.24
seq_text=TCTGCTAGGTCAACGATGGTCAGATAATCTGCTA val=2.44
seq_text=CTACCAGGGTGAACAAGGTCGTTGATTACTATTC val=2.67
seq_text=CATACAGGTTCAGCTAGGCCAGAGTAGGGACGGC val=0.691
seq_text=TCGAGTAGGTTAGGGGGATTCAGAATGGCGTCGA val=0.482
seq_text=CCTTACGGGTCACGAGCTTATAGCACGACGAGCG val=5.25
seq_text=GTACCAACGTGAATAGGTCGTTGATGAGTAGGCG val=0.105
seq_text=CCTGCTAGGTCATGGTCAGCTAGTCTACAGTATG val=2.41
seq_text=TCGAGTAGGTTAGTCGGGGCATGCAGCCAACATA val=0.207
seq_text=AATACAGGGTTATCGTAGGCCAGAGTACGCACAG val=1.79
seq_text=TCGAGTAGGTTAGTCGGGGAATTCAGCCAACATA val=-0.102
seq_text=ATATGTAGGTAAAGGGTCATTCAGGTTGGTTCGC val=5.04
seq_text=TAGCCTAGGGCATTGGGCCAGTATAGTACGCATC val=-0.444
seq_text=TCTTGTAGATCAATAGAGGTAAAGAAAGTGCGCT val=0.505
seq_text=TCTGCTAGGTCAACGATGGCCAGCTAATCTGCTA val=1.9
seq_text=GGTAGTTGGTCAGTAAAAGGTCACACACCGGTCG val=5.68
seq_text=CTCGAAAGGTCGTGCTCAGGTGAATATACCAAAC val=4.28
seq_text=AATACAGGGTCATCGTAGGCCAGACTACGCACAG val=4.7
seq_text=CGTCCAAGGTCCAGGTCAGTGAAAGAGACTCGAA val=0.904
seq_text=ATCTCTAGGTAACCAATTTCAGTGAATGCCGAAC val=0.264
seq_text=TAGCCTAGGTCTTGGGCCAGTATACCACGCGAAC val=-0.298
seq_text=GAGACAGGGTCAGCTAGAGGCCAGAGTATGGAAA val=4.73
seq_text=CCAGACAGGTGAGAAAGTAACTCAGCCTCGATTA val=0.117
seq_text=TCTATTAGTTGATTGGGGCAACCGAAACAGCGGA val=1.14
seq_text=AGTCAAACTTCACTAGGTAACGTAAGATTCAGCT val=-0.00905
seq_text=GCTTGGAGGACAAGGTCAGAGCTTTGTCCGTAGA val=2.05
seq_text=TGAATGAGGTTAAAGATCATGGAACGTGGCGTCG val=3.73
seq_text=CCTCGGAGGACAACAGAAGGTCAGAGCTGCCAGA val=1.95
seq_text=CCTATTAGTTGCCCATAAGGGCAACCGAAGCTCG val=0.824
seq_text=ACTATTAGTTGGCTTAGGGCAACCGATACGACGC val=0.151
seq_text=TATGCTAGGTCAGTTGGTCAGCTAACGAGCTGCC val=0.47

----------
system: RXRa DBDmut IVT, anti-RXR (DBD mutation: RXRa K156A/R161A, NR concentration 90 nM); assay: PBM binding z-score (relative to random genomic background probes); higher = stronger binding; sequences stand for … in GC…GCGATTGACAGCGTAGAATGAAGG
Catalogue of PBM binding z-score readings, one per entry.
Readout name: PBM binding z-score

seq_text=CTCGAAAGGTCGTGCTCAGGTGATTATACCAAAC val=2.27
seq_text=GGAACGAGGGCAAATTGATAGCAGAGTTTGATGG val=2.21
seq_text=TGTGCTAGGTCAGTTGGTCAGCTAACGAGCTGCC val=-0.535
seq_text=GATACAGGGTCAGCTAGAGGCCAGAGGATGGAAA val=1.22
seq_text=GGAACGAGGGCAGGTTGATAGCAGAGTTTGATGG val=0.971
seq_text=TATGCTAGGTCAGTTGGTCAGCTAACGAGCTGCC val=-0.0461
